Species: Rattus norvegicus
Experiment: Open TG-GATES - Regimen: Single
Assay type: toxicity, organism-based, Sprague-Dawley
Parameters: regimen Single, gender Male, age 6 weeks
Details: in vivo, po, 1000 mg/kg, 24 h, tissue Plasma, route gavage, dose level High
Entries and their measured PL follow.
Quick reminder: number only, in mg/dL, skip the unit.

I'd like to know its PL. The compound in question is COC1=CC(=O)C[C@@H](C)[C@]12Oc1c(Cl)c(OC)cc(OC)c1C2=O
153

I'd like to know its PL. The compound in question is NC(N)=Nc1nc(CSCCC(N)=NS(N)(=O)=O)cs1
137.6

I'd like to know its PL. The compound in question is COc1ccc2[nH]c([S+]([O-])Cc3ncc(C)c(OC)c3C)nc2c1 (stereo not given)
162.8

I'd like to know its PL. The compound in question is CC(C)OC(=O)C(C)(C)Oc1ccc(C(=O)c2ccc(Cl)cc2)cc1 [FENOFIBRATE]
112.4

I'd like to know its PL. The compound in question is CCOC(=O)CCC(=O)O[C@H]1[C@H](O[C@@H]2[C@@H](C)[C@H](O[C@H]3C[C@@](C)(OC)[C@@H](O)[C@H](C)O3)[C@@H](C)C(=O)O[C@H](CC)[C@@](C)(O)[C@H](O)[C@@H](C)C(=O)[C@H](C)C[C@@]2(C)O)O[C@H](C)C[C@@H]1N(C)C [ERYTHROMYCIN ETHYLSUCCINATE]
139.6

====

Organism: Rattus norvegicus
Assay: Open TG-GATES - Regimen: Daily Repeat
Assay type: toxicity, organism-based, Sprague-Dawley
Design: regimen Daily Repeat, gender Male, age 6 weeks
Conditions: in vivo, po, 300 mg/kg, […], tissue Blood, route gavage, dose level Middle, time 28 day
Entries and their measured PT follow.
Quick reminder: number only, in s, skip the unit.

CCOC(=O)CCC(=O)O[C@H]1[C@H](O[C@@H]2[C@@H](C)[C@H](O[C@H]3C[C@@](C)(OC)[C@@H](O)[C@H](C)O3)[C@@H](C)C(=O)O[C@H](CC)[C@@](C)(O)[C@H](O)[C@@H](C)C(=O)[C@H](C)C[C@@]2(C)O)O[C@H](C)C[C@@H]1N(C)C [ERYTHROMYCIN ETHYLSUCCINATE]: 16

I'd like to know its PT. The compound in question is NC(N)=Nc1nc(CSCCC(N)=NS(N)(=O)=O)cs1
12.5

I'd like to know its PT. The compound in question is COc1ccc2[nH]c([S+]([O-])Cc3ncc(C)c(OC)c3C)nc2c1 (stereo not given)
12.4

I'd like to know its PT. The compound in question is CCOc1ccc(NC(=O)CC(C)O)cc1 (stereo not given)
14.1

I'd like to know its PT. The compound in question is COC1=CC(=O)C[C@@H](C)[C@]12Oc1c(Cl)c(OC)cc(OC)c1C2=O
12.6

====

Entries and their measured LIVER follow.
Organism: Rattus norvegicus
Test: Open TG-GATES - Regimen: Single
Assay type: toxicity, organism-based, Sprague-Dawley
Design: regimen Single, gender Male, age 6 weeks
Details: in vivo, po, 100 mg/kg, 3 h, tissue Liver, route gavage, dose level Low

Solved cases below.
COc1ccc2[nH]c([S+]([O-])Cc3ncc(C)c(OC)c3C)nc2c1 (centres undefined): 10.2 g
CCOC(=O)CCC(=O)O[C@H]1[C@H](O[C@@H]2[C@@H](C)[C@H](O[C@H]3C[C@@](C)(OC)[C@@H](O)[C@H](C)O3)[C@@H](C)C(=O)O[C@H](CC)[C@@](C)(O)[C@H](O)[C@@H](C)C(=O)[C@H](C)C[C@@]2(C)O)O[C@H](C)C[C@@H]1N(C)C [ERYTHROMYCIN ETHYLSUCCINATE]: 9.9 g

I'd like to know its LIVER. The compound in question is NC(N)=Nc1nc(CSCCC(N)=NS(N)(=O)=O)cs1
10.3 g

I'd like to know its LIVER. The compound in question is COC1=CC(=O)C[C@@H](C)[C@]12Oc1c(Cl)c(OC)cc(OC)c1C2=O
9.4 g
